measurement target: human OX1 receptors (Homo sapiens, UniProt O43613)
Construct: expressed in transfected cells; host or cells: CHO cells
Sequence (O43613 1-425): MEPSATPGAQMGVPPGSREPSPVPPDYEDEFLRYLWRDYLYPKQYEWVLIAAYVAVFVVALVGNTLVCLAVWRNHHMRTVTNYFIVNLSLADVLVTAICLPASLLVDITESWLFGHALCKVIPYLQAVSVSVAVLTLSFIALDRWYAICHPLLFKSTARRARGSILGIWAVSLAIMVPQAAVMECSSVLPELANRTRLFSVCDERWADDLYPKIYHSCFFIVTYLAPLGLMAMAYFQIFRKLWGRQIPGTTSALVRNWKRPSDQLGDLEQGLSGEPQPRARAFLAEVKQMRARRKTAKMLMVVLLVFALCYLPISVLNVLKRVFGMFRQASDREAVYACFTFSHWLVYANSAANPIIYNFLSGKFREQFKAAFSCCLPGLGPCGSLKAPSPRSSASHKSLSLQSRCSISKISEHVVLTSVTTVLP
protocol: antagonistic activity against human OX1 receptor, [Ca2+]i fluorimetry in transfected CHO cells
Assay type: cell-based
measurement context: CHO cells transfected with human recombinant OX1; activated with orexin-A 3 nM; pKb = co-logarithm of apparent dissociation constant (modified Cheng Prusoff)
parameter: Kb (nM)

Please tell me: Kb of O=C(c1nccc2ccccc12)N1CCC(F)(F)CC1CNc1ccc(Cl)cn1 (racemic) [Compound 22] , system human OX1 receptors (Homo sapiens, UniProt O43613)?
0.631

(1) O=C(c1nc(C(F)(F)F)ccc1-c1ncccn1)N1CCC(F)(F)CC1CNc1ccc(C(F)(F)F)cn1 (racemic) [Compound 39]
(2) Cc1ccc(-c2ncccn2)c(C(=O)N2CCC(F)(F)CC2CNc2ccc(Cl)cn2)n1 (single isomer, unassigned; isomer a) [Compound 16]
(3) Cc1ccc(-n2nccn2)c(C(=O)N2CCC(F)(F)CC2CNc2ccc(Cl)cn2)n1 (single isomer, unassigned; isomer a) [Compound 8]
Please give the order of these molecules when sorted by Kb, largest value leading. Write the labels in rank order as requested.
1, 3, 2
(1: 31.6 nM, 3: 1.58 nM, 2: 0.631 nM)

====

measurement target: human OX1 receptors (Homo sapiens, UniProt O43613)
Construct: expressed in transfected cells; host or cells: CHO cells
Sequence (O43613 1-425): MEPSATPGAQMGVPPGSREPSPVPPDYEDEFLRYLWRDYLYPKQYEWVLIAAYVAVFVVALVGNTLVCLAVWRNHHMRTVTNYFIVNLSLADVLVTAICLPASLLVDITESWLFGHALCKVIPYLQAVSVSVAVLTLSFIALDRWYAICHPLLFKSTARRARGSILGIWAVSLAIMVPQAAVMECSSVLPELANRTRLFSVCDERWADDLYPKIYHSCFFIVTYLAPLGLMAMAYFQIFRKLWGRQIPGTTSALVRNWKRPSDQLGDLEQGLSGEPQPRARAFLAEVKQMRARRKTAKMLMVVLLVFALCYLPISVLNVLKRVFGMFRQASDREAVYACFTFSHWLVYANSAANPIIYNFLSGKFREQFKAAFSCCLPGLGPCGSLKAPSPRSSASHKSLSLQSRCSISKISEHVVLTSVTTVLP
protocol: antagonistic activity against human OX1 receptor, [Ca2+]i fluorimetry in transfected CHO cells
Assay type: cell-based
measurement context: CHO cells transfected with human recombinant OX1; activated with orexin-A 3 nM; pKb = co-logarithm of apparent dissociation constant (modified Cheng Prusoff)
Protocol: Thus the plate was loaded with the calcium dye (Fluo-4NW/probenecid in HBSS, Hepes 20 mM, pH 7.4; Invitrogen) at 37° C. for 60 min. Afterward the temperature was equilibrated at 22° C. for 15 min and the [Ca2+]i measured directly on the plate by using a fluorescent plate reader (CeliLux Perkin Elmer). Invention compounds were dissolved in DMSO, diluted in HBSS (DMSO, 0.3% final) and added to the wells. […]
parameter: Kb (nM)

Can you share its Kb? I mean this compound: O=C(c1ncccc1-c1ccccc1)N1CCC(F)(F)CC1CNc1ccc(C(F)(F)F)cn1 (racemic)
6.31

What Kb value was documented for this compound, Cc1ccc(-c2ccccc2)c(C(=O)N2CCC(F)(F)CC2CNc2ccc(C(F)(F)F)cn2)n1 (single isomer, unassigned; isomer b) [Compound 38] ?
3.16

Reported Kb, compound Cc1ccc(-c2ncccn2)c(C(=O)N2CCC(F)(F)CC2CNc2ccc(Cl)cn2)c1 (racemic) [Compound 6] : ____
5.01

Form field: reported Kb of Cc1ncc(-c2ccc(F)cc2C(=O)N2CCC(F)(F)CC2CNc2ccc(C(F)(F)F)cn2)cn1 (racemic)
25.1

Look at this compound and give its reported Kb. Cc1ccc(-c2ncccn2)c(C(=O)N2CCC(F)(F)CC2CNc2ccc(Cl)cn2)n1 (racemic) [Compound 14]
2.51

Look at this compound and give its reported Kb. N#Cc1ccc(-c2ncccn2)c(C(=O)N2CCC(F)(F)CC2CNc2ccc(Cl)cn2)c1 (racemic)
1.58

Can you share its Kb? I mean this compound: O=C(c1ccccc1OCC1CC1)N1CCC(F)(F)CC1CNc1ccc(Cl)cn1 (racemic)
2

Which Kb value is on record for O=C(c1ncccc1-c1ncccn1)N1CCC(F)(F)CC1CNc1ccc(C(F)(F)F)cn1 (racemic) ?
3.16

(A) Cc1ccc(-c2ncccn2)c(C(=O)N2CCC(F)(F)CC2CNc2ncc(C(F)(F)F)cc2F)n1 (single isomer, unassigned; isomer a) [Compound 32]
(B) Cc1ccc(-c2ncccn2)c(C(=O)N2CCC(F)(F)CC2CNc2ccc(C(F)(F)F)cn2)n1 (single isomer, unassigned; isomer a)
(C) O=C(c1nccc2ccccc12)N1CCC(F)(F)CC1CNc1ccc(C(F)(F)F)cn1 (single isomer, unassigned; isomer a) [Compound 41]
(D) Cc1ccc(-c2ncccn2)c(C(=O)N2CCC(F)(F)CC2CNc2ccc(Cl)cn2)n1 (single isomer, unassigned; isomer b) [Compound 17]
(E) Cc1ccc(-c2ncccn2)c(C(=O)N2CCC(F)(F)CC2COc2ccc(C(F)(F)F)cn2)n1 (racemic)
Order each entry by recorded Kb, climbing from the minimum. Return value: ordered labels per request.
B, C, A, E, D
(B: 0.794 nM, C: 1.58 nM, A: 2.51 nM, E: 7.94 nM, D: 100 nM)
